These data points were gathered from the supplement of paper PMC10307832.

System: NCI-H1355
procedure-summary: relative viability (nuclei count vs DMSO), 5 days (fraction); higher = more cells survive
protocol-conditions: first compound 0.01581 µM
Each item that follows carries a reported relative viability.

compound | subject-of-test | relative viability
CC1(C)CCC(c2ccc(Cl)cc2)=C(CN2CCN(c3ccc(C(=O)NS(=O)(=O)c4ccc(N[C@H](CCN5CCOCC5)CSc5ccccc5)c(S(=O)(=O)C(F)(F)F)c4)cc3)CC2)C1 [Navitoclax] + Cc1cc(Nc2cc(N3CCN(C)CC3)nc(Sc3ccc(NC(=O)C4CC4)cc3)n2)n[nH]1 [Tozasertib] (partner 0.1 µM) | NCI-H1355 | 0.589
CC1(C)CCC(c2ccc(Cl)cc2)=C(CN2CCN(c3ccc(C(=O)NS(=O)(=O)c4ccc(N[C@H](CCN5CCOCC5)CSc5ccccc5)c(S(=O)(=O)C(F)(F)F)c4)cc3)CC2)C1 [Navitoclax] + Nc1ncn([C@H]2C[C@H](O)[C@@H](CO)O2)c(=O)n1 [Decitabine] (partner 2 µM) | NCI-H1355 | 0.372
CC1(C)CCC(c2ccc(Cl)cc2)=C(CN2CCN(c3ccc(C(=O)NS(=O)(=O)c4ccc(N[C@H](CCN5CCOCC5)CSc5ccccc5)c(S(=O)(=O)C(F)(F)F)c4)cc3)CC2)C1 [Navitoclax] + C[C@]1(O)C[C@@H](c2nc(-c3ccc4ccc(-c5ccccc5)nc4c3)c3c(N)nccn32)C1 [Linsitinib] (partner 1 µM) | NCI-H1355 | 0.892

###

Each item that follows carries a reported relative viability.
System: NCI-H2085
procedure-summary: relative viability (nuclei count vs DMSO), 5 days (fraction); higher = more cells survive
protocol-conditions: first compound 0.253 µM
recorded-metric: relative viability

compound | recorded-metric | measured
C=C1C(=O)O[C@@H](CCCCCCCC)[C@@H]1C(=O)O [C-75] + Cc1cc(Nc2cc(N3CCN(C)CC3)nc(Sc3ccc(NC(=O)C4CC4)cc3)n2)n[nH]1 [Tozasertib] (partner 0.1 µM) | relative viability | 0.746
Oc1nc(-c2ccc(C(F)(F)F)cc2)nc2c1CSCC2 [XAV939] + Cc1cc(Nc2cc(N3CCN(C)CC3)nc(Sc3ccc(NC(=O)C4CC4)cc3)n2)n[nH]1 [Tozasertib] (partner 0.1 µM) | relative viability | 0.856
C=C1C(=O)O[C@@H](CCCCCCCC)[C@@H]1C(=O)O [C-75] + C[C@@H](Oc1cc(-c2cnn(C3CCNCC3)c2)cnc1N)c1c(Cl)ccc(F)c1Cl [Crizotinib] (partner 1 µM) | relative viability | 0.803

###

Each item that follows carries a reported relative viability.
Tested on: PC-3 [JPC-3]
procedure-summary: relative viability (nuclei count vs DMSO), 5 days (fraction); higher = more cells survive
protocol-conditions: first compound 0.5 µM

compound | relative viability
CC1(C)CCC(c2ccc(Cl)cc2)=C(CN2CCN(c3ccc(C(=O)NS(=O)(=O)c4ccc(N[C@H](CCN5CCOCC5)CSc5ccccc5)c(S(=O)(=O)C(F)(F)F)c4)cc3)CC2)C1 [Navitoclax] + CC(=O)c1c(C)c2cnc(Nc3ccc(N4CCNCC4)cn3)nc2n(C2CCCC2)c1=O [Palbociclib] (partner 0.5 µM) | 0.506
CC1(C)CCC(c2ccc(Cl)cc2)=C(CN2CCN(c3ccc(C(=O)NS(=O)(=O)c4ccc(N[C@H](CCN5CCOCC5)CSc5ccccc5)c(S(=O)(=O)C(F)(F)F)c4)cc3)CC2)C1 [Navitoclax] + Nc1nc2[nH]cc(CCc3ccc(C(=O)N[C@@H](CCC(=O)O)C(=O)O)cc3)c2c(=O)[nH]1 [Pemetrexed] (partner 0.2 µM) | 0.754
CC1(C)CCC(c2ccc(Cl)cc2)=C(CN2CCN(c3ccc(C(=O)NS(=O)(=O)c4ccc(N[C@H](CCN5CCOCC5)CSc5ccccc5)c(S(=O)(=O)C(F)(F)F)c4)cc3)CC2)C1 [Navitoclax] + NC(=O)Nc1cc(-c2cccc(F)c2)sc1C(=O)N[C@H]1CCCNC1 [AZD7762] (partner 0.2 µM) | 0.759

###

Test system: COR-L 105
procedure-summary: relative viability (nuclei count vs DMSO), 5 days (fraction); higher = more cells survive
protocol-conditions: first compound 0.005 µM
I'd appreciate it if you marked entries Met when relative viability is lower than 0.8 and Not met when it is not.

compound | qualitative-label
CC1(C)CCC(c2ccc(Cl)cc2)=C(CN2CCN(c3ccc(C(=O)NS(=O)(=O)c4ccc(N[C@H](CCN5CCOCC5)CSc5ccccc5)c(S(=O)(=O)C(F)(F)F)c4)cc3)CC2)C1 [Navitoclax] + N=C(N)NC(=N)NCCc1ccccc1 [Phenformin] (partner 250 µM) | Met
CC1(C)CCC(c2ccc(Cl)cc2)=C(CN2CCN(c3ccc(C(=O)NS(=O)(=O)c4ccc(N[C@H](CCN5CCOCC5)CSc5ccccc5)c(S(=O)(=O)C(F)(F)F)c4)cc3)CC2)C1 [Navitoclax] + CC(C)C[C@H](NC(=O)[C@H](Cc1ccccc1)NC(=O)c1cnccn1)B(O)O [Bortezomib] (partner 0.002 µM) | Not met
CC1(C)CCC(c2ccc(Cl)cc2)=C(CN2CCN(c3ccc(C(=O)NS(=O)(=O)c4ccc(N[C@H](CCN5CCOCC5)CSc5ccccc5)c(S(=O)(=O)C(F)(F)F)c4)cc3)CC2)C1 [Navitoclax] + O=C(c1cc(Cc2n[nH]c(=O)c3ccccc23)ccc1F)N1CCN(C(=O)C2CC2)CC1 [Olaparib] (partner 8 µM) | Met
CC1(C)CCC(c2ccc(Cl)cc2)=C(CN2CCN(c3ccc(C(=O)NS(=O)(=O)c4ccc(N[C@H](CCN5CCOCC5)CSc5ccccc5)c(S(=O)(=O)C(F)(F)F)c4)cc3)CC2)C1 [Navitoclax] + CC(=O)c1c(C)c2cnc(Nc3ccc(N4CCNCC4)cn3)nc2n(C2CCCC2)c1=O [Palbociclib] (partner 0.5 µM) | Met

###

Each item that follows carries a reported relative viability.
Tested on: HCC-366
procedure-summary: relative viability (nuclei count vs DMSO), 5 days (fraction); higher = more cells survive
protocol-conditions: first compound 0.8 µM
recorded-metric: relative viability

molecule | recorded-metric | measured
C=C1C(=O)O[C@@H](CCCCCCCC)[C@@H]1C(=O)O [C-75] + CS(=O)(=O)N1CCN(Cc2cc3nc(-c4cccc5[nH]ncc45)nc(N4CCOCC4)c3s2)CC1 [Pictilisib] (partner 1 µM) | relative viability | 0.152
C=C1C(=O)O[C@@H](CCCCCCCC)[C@@H]1C(=O)O [C-75] + COc1cccc2cc(-c3nc([C@H]4CC[C@H](C(=O)O)CC4)n4ncnc(N)c34)[nH]c12 [OSI-027] (partner 0.5 µM) | relative viability | 0.897
Oc1nc(-c2ccc(C(F)(F)F)cc2)nc2c1CSCC2 [XAV939] + C[C@@H](Oc1cc(-c2cnn(C3CCNCC3)c2)cnc1N)c1c(Cl)ccc(F)c1Cl [Crizotinib] (partner 1 µM) | relative viability | 0.52
Oc1nc(-c2ccc(C(F)(F)F)cc2)nc2c1CSCC2 [XAV939] + Nc1nc2[nH]cc(CCc3ccc(C(=O)N[C@@H](CCC(=O)O)C(=O)O)cc3)c2c(=O)[nH]1 [Pemetrexed] (partner 0.2 µM) | relative viability | 0.142
Oc1nc(-c2ccc(C(F)(F)F)cc2)nc2c1CSCC2 [XAV939] + Nc1ncn([C@H]2C[C@H](O)[C@@H](CO)O2)c(=O)n1 [Decitabine] (partner 2 µM) | relative viability | 0.326
Oc1nc(-c2ccc(C(F)(F)F)cc2)nc2c1CSCC2 [XAV939] + CC(C)C[C@H](NC(=O)[C@H](Cc1ccccc1)NC(=O)c1cnccn1)B(O)O [Bortezomib] (partner 0.002 µM) | relative viability | 1.01
C=C1C(=O)O[C@@H](CCCCCCCC)[C@@H]1C(=O)O [C-75] + CC1(C)CCC(c2ccc(Cl)cc2)=C(CN2CCN(c3ccc(C(=O)NS(=O)(=O)c4ccc(N[C@H](CCN5CCOCC5)CSc5ccccc5)c(S(=O)(=O)C(F)(F)F)c4)cc3)CC2)C1 [Navitoclax] (partner 0.5 µM) | relative viability | 0.943
Oc1nc(-c2ccc(C(F)(F)F)cc2)nc2c1CSCC2 [XAV939] + O=C(c1cc(Cc2n[nH]c(=O)c3ccccc23)ccc1F)N1CCN(C(=O)C2CC2)CC1 [Olaparib] (partner 8 µM) | relative viability | 0.283
Oc1nc(-c2ccc(C(F)(F)F)cc2)nc2c1CSCC2 [XAV939] + CS(=O)(=O)CCNCc1ccc(-c2ccc3ncnc(Nc4ccc(OCc5cccc(F)c5)c(Cl)c4)c3c2)o1 [Lapatinib] (partner 2 µM) | relative viability | 1.01
Oc1nc(-c2ccc(C(F)(F)F)cc2)nc2c1CSCC2 [XAV939] + COc1cc2c(Oc3ccc(NC(=O)C4(C(=O)Nc5ccc(F)cc5)CC4)cc3F)ccnc2cc1OCCCN1CCOCC1 [Foretinib] (partner 0.25 µM) | relative viability | 0.933
